Molecular target: T1, mTOR(FRB) and FKBP12 interaction (Homo sapiens, UniProt P42345+P62942)
T1 construct: region having the 2025th to 2114th amino acids of the mTOR protein; expressed in transfected cells; host or cells: HeLaS3; 293T for some combinations with FKBP12-Tankyrase(SAM)
T1 sequence (P42345 2025-2114): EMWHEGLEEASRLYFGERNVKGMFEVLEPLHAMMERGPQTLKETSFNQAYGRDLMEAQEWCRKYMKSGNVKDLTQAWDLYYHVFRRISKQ
T1 sequence (P62942 whole entry): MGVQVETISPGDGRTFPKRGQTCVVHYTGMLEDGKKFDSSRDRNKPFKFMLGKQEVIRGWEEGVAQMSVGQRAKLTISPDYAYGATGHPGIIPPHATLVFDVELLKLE
Assay: Degree of fluorescent focus (assembly) formation after rapamycin, fluorescent proteins fused to mTOR(FRB) (Example 8, Table 1)
Type: cell-based
Parameters: key: +++: fluorescent foci were observed in 50% or more of the HeLaS3 cells; ++: fluorescent foci were observed in 50% or less of the HeLaS3 cells; +: fluorescent foci were observed in 293T cells expressing a larger amount of proteins than that in the HeLaS3 cells
Settings: fluorescent protein fused to mTOR(FRB), with FKBP12-Tankyrase(SAM), some combinations in 293T cells
Property Measured: degree of fluorescent focus formation, Tankyrase (SAM)

input: Entry under review: monomericMidoriishi-Cyan1 (protein, Synthetic sequence mMiCy1) MVSYSKQGIAQEMRTKYRMEGSVNGHEFTIEGVGTGNPYEGKQTSELVIIKPKGKPLPFSFDILSTVFQYGNRCFTKYPADMPDYFKQAFPDGMSYERSFLFEDGGVATASWSIRLEGNCFIHNSIYHGTNFPADGPVMKKQTIGWDKSSEKMSVAKEVLRGDVTQFLLLEGGGYQRCQLHSTYKTEKPVAMPPSHVVEHQIVRTDLGQTAKGFKVKLEEHAEAHVNPLKVK . Reported degree of fluorescent focus formation, Tankyrase (SAM)?
output: +

Every entry's value here was drawn from patent US9766250B2.
